Measured on: Sphingosine kinase 1 (Homo sapiens) (UniProt Q9NYA1)
Sequence (Q9NYA1 whole entry): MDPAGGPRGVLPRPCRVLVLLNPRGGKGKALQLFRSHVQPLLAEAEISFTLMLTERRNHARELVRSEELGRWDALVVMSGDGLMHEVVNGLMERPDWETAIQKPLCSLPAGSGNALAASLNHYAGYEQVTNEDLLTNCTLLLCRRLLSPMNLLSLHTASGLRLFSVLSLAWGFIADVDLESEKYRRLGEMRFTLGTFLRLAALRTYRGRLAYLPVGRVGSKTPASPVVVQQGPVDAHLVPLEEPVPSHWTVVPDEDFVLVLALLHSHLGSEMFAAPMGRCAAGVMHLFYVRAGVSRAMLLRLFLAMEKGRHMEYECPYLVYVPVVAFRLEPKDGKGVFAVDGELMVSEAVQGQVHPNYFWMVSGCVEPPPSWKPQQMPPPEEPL
Experimental context: at 1 µM;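 note: mean SPHK1 inhibition value reported from the GSK PKIS kinase panel screen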
Measurement type: inhibition (%)
Numbers only; they are read as %.

These recorded examples may help you get a feel for the data.
INSERT INTO assay_data (compound, data_value) VALUES
  ('CC1=C(C(=O)Nc2ccc3[nH]ncc3c2)C(c2ccc(F)cc2)N=C(c2ccc(C(F)(F)F)nc2)N1 (centres undefined)', 2.01),
  ('FC(F)(F)CNc1nccc(-c2cnn3ncccc23)n1', -0.16),
  ('CS(=O)(=O)CCNCc1ccc(-c2ccc3ncnc(Nc4ccc(OCc5ccccc5)cc4)c3c2)o1', -3.83),
  ('CCCNc1cccc(-n2ncc3c(N/N=C/c4ccncc4)ncnc32)c1', -3.91),
  ('OCCCNc1nccc(-c2c(-c3ccc(F)cc3)nn3cc(C(F)(F)F)ccc23)n1', -0.86);

Ask: Supply reported inhibition belonging to this compound: COc1c(C(N)=O)cc(-c2ccc(Cl)cc2)cc1-c1ccc(S(N)(=O)=O)cc1
Reply: 0.21

Ask: Please report inhibition for the following compound: CS(=O)(=O)Nc1ccc(-c2ccc3c(NC(=O)C4CC4)n[nH]c3c2)cc1
Reply: -3.21

Ask: Output measured inhibition for this item: CS(=O)(=O)CCNCc1ccoc1-c1ccc2ncnc(Nc3ccc(OCc4ccccc4)cc3)c2c1
Reply: 5.32

Ask: Fill in inhibition for record NS(=O)(=O)c1ccc(N/N=C2\C(=O)Nc3ccc(C(=O)NCc4ccncc4)cc32)cc1
Reply: 0.35

Measured values drawn from ChEMBL document CHEMBL1961873 for this set.
